FYI, the data here is from the supplement of paper PMC3937590.

# System: MCF10F
# assay.comment: -log10 GI50 (growth inhibition 50%) (-log10(M)); higher = more potent growth inhibition
observable: -log10 GI50
Lab note: jot the number down without any unit.

Ask: Answer with the recorded -log10 GI50 of Nc1ccn([C@@H]2O[C@H](CO)[C@@H](O)C2(F)F)c(=O)n1 only.
Reply: 7.08

Ask: Answer with the recorded -log10 GI50 of CC[C@@]1(O)C(=O)OCc2c1cc1n(c2=O)Cc2cc3c(CN(C)C)c(O)ccc3nc2-1 only.
Reply: 6.67

Ask: Answer with the recorded -log10 GI50 of CCc1c2c(nc3ccc(OC(=O)N4CCC(N5CCCCC5)CC4)cc13)-c1cc3c(c(=O)n1C2)COC(=O)[C@]3(O)CC only.
Reply: 5.18

Further cases:
Ask: Answer with the recorded -log10 GI50 of CCN(CC)CCNC(=O)c1c(C)[nH]c(/C=C2\C(=O)Nc3ccc(F)cc32)c1C [Sunitinib malate] only.
Reply: 5.39

Ask: Answer with the recorded -log10 GI50 of CN(Cc1cnc2nc(N)nc(N)c2n1)c1ccc(C(=O)N[C@@H](CCC(=O)O)C(=O)O)cc1 [Methotrexate] only.
Reply: 7

Ask: Answer with the recorded -log10 GI50 of COc1ccc(C2=N[C@@H](c3ccc(Cl)cc3)[C@@H](c3ccc(Cl)cc3)N2C(=O)N2CCNC(=O)C2)c(OC(C)C)c1 only.
Reply: 5.18

----------
# Test system: SKBR3
# assay.comment: -log10 GI50 (growth inhibition 50%) (-log10(M)); higher = more potent growth inhibition
Entries and their -log10 GI50
Lab note: jot the number down without any unit.

Ask: Answer with the recorded -log10 GI50 of COc1cc2ncnc(Nc3ccc(F)c(Cl)c3)c2cc1OCCCN1CCOCC1 only.
Reply: 5.56

Ask: Answer with the recorded -log10 GI50 of CO[C@H]1C[C@@H]2CC[C@@H](C)[C@@](O)(O2)C(=O)C(=O)N2CCCC[C@H]2C(=O)O[C@H]([C@H](C)C[C@@H]2CC[C@@H](OCCO)[C@H](OC)C2)CC(=O)[C@H](C)/C=C(\C)[C@@H](O)[C@@H](OC)C(=O)[C@H](C)C[C@H](C)/C=C/C=C/C=C/1C only.
Reply: 6.84

Ask: Answer with the recorded -log10 GI50 of Cc1cncc2cccc(S(=O)(=O)N3CCCN(C(=O)CN)C[C@@H]3C)c12 only.
Reply: 4.33

Further cases:
Ask: Answer with the recorded -log10 GI50 of CN(C)C/C=C/C(=O)Nc1cc2c(Nc3ccc(F)c(Cl)c3)ncnc2cc1O[C@H]1CCOC1 only.
Reply: 7.88

----------
# Test system: MDAMB134VI
# assay.comment: -log10 GI50 (growth inhibition 50%) (-log10(M)); higher = more potent growth inhibition
observable: -log10 GI50
Lab note: jot the number down without any unit.

Worked set:
Ask: Answer with the recorded -log10 GI50 of O=c1cc(-c2ccccc2)oc2cc(O)c(O)c(O)c12 only.
Reply: 4.07

Ask: Answer with the recorded -log10 GI50 of CCN(CC)CCNC(=O)c1c(C)[nH]c(/C=C2\C(=O)Nc3ccc(F)cc32)c1C [Sunitinib malate] only.
Reply: 4.97

Ask: Answer with the recorded -log10 GI50 of C[C@]12O[C@H](C[C@]1(O)CO)n1c3ccccc3c3c4c(c5c6ccccc6n2c5c31)CNC4=O only.
Reply: 6.33

Ask: Answer with the recorded -log10 GI50 of CCN(CC)C(=S)SSC(=S)N(CC)CC only.
Reply: 5.88

Ask: Answer with the recorded -log10 GI50 of CO[C@H]1C[C@@H]2CC[C@@H](C)[C@@](O)(O2)C(=O)C(=O)N2CCCC[C@H]2C(=O)O[C@H]([C@H](C)C[C@@H]2CC[C@@H](OC(=O)C(C)(CO)CO)[C@H](OC)C2)CC(=O)[C@H](C)/C=C(\C)[C@@H](O)[C@@H](OC)C(=O)[C@H](C)C[C@H](C)/C=C/C=C/C=C/1C only.
Reply: 6.89

Attention now shifts to the item below.
Ask: Answer with the recorded -log10 GI50 of Cc1ccc(C(=O)N(CCCN)[C@@H](c2nc3cc(Cl)ccc3c(=O)n2Cc2ccccc2)C(C)C)cc1 only.
Reply: 7.36
